The reported numbers originate from PubChem BioAssay AID774.

measurement-protocol: NADH-endpoint coupling enzyme inhibition profiling – biochemical, MLSMR library, artefact control, profiling panel (AID 774);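 note: the DPM-DC format reads NADH fluorescence rather than 340 nm absorbance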
measurement-setup: coupled PK/LDH NADH assays, four targets; at 10 µM; hits give high values
Screen size: about 65,000 compounds; about 15 (0.02%) were called active. A selection follows.
parameter: inhibition (%)
The reply should be a number in %, with the unit left off.

Illustrative cases are given below, each with its answer.
CNC(=O)n1ccc(C(=O)N2CCCCC2)n1: 2
CCOC(=O)c1cc2cc(-c3c(C(=O)OCC)oc4cc(O)cc(O)c4c3=O)ccc2o1: 3
Nc1ccc(-n2nncc2-c2ccco2)cc1: 3
COc1cc(C2C(C(=O)Nc3ccc(F)cc3)=C(C)Nc3nc(CCCO)nn32)cc(OC)c1OC (stereo unspecified): 9
OC(COc1cccc(OCC(O)CN2CCCC2)c1)CN1CCCC1 (stereo unspecified): 3
COc1ccccc1C1/C(=C(/O)c2ccc(C)cc2)C(=O)C(=O)N1Cc1ccco1 (stereo unspecified): 10
O=C(CSc1ncccn1)NCCc1ccccc1: 5
CCc1nnc(NC(=O)CCC(=O)O)s1: 1

Q) Report inhibition for CCOc1ccc(S(=O)(=O)N(CC(=O)O)c2ccccc2)cc1 please.
A) 1

Q) Report inhibition for COc1cccc(-c2cc3nc4c(c(N5CCC6(CC5)OCCO6)n3n2)CCCC4)c1 please.
A) 4

Q) Report inhibition for CC1(C)C(=O)Nc2ccccc2N1C(=O)COC(=O)Cn1cnc2ccccc2c1=O please.
A) 11

---

inhibition by entry:
measurement-protocol: NADH-endpoint coupling enzyme inhibition profiling – biochemical, MLSMR library, artefact control, profiling panel (AID 774);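 note: the DPM-DC format reads NADH fluorescence rather than 340 nm absorbance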
measurement-setup: coupled PK/LDH NADH assays, four targets; at 10 µM; hits give high values
In all, about 65,000 compounds went through this assay and about 15 (0.02%) were called active. Only a sample is shown.
The reply should be a number in %, with the unit left off.

C=CCNc1nc(C)nc(OC)n1: 3
C=CCc1cccc2cc(C(=O)N3CCN(C(=O)OCC)CC3)c(=O)oc12: 4
COc1ccc(-c2noc(CN(C)S(=O)(=O)c3ccc(C)cc3)n2)cc1: 6
Cn1c(=O)c2c(nc(OCc3cccnc3)n2Cc2ccccc2)n(C)c1=O: 3
COc1ccc(N2C(=O)CCC(C(=O)Nc3ccccn3)C2c2ccc(OC)c(OC)c2)cc1 (stereo not drawn): 2
N#Cc1ccc(OCCN2C(=O)NC3(CCSC3)C2=O)cc1 (stereo not drawn): 14

Q) Report inhibition for Cc1cc(=O)[nH]c(=S)[nH]1 please.
A) 0

Q) Report inhibition for CCOc1ccc(OCC)c(NC(=O)C(NS(=O)(=O)c2ccc3c(c2)oc(=O)n3C)C(C)C)c1 (stereo not drawn) please.
A) 7

Q) Report inhibition for c1ccc2c(CNn3cnnc3)cccc2c1 please.
A) 3

Q) Report inhibition for Cn1nnnc1SCc1cc(=O)[nH]c2ccccc12 please.
A) 6

---

measurement-protocol: NADH-endpoint coupling enzyme inhibition profiling – biochemical, MLSMR library, artefact control, profiling panel (AID 774);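 note: the DPM-DC format reads NADH fluorescence rather than 340 nm absorbance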
measurement-setup: coupled PK/LDH NADH assays, four targets; at 10 µM; hits give high values
The campaign covered roughly 65,000 compounds. About 15 (0.02%) were called active. The list is a sample of the results. Non-standard residues stand in square brackets, D forms with d. Residues, ends and D or L forms follow the SMILES beside them. ξ: configuration not given here. ξV = CC(C)C(N)C(=O)O
Threshold rule: inhibition greater than or equal to 5% is Met; below that, Not met.

Fc1ccc2nc(Nc3nc4c(s3)CCCC4)sc2c1: Not met
O=C(O)c1ccc(F)c(S(=O)(=O)Nc2ccccc2)c1: Met
CCOC(=O)CC1C(=O)NCCN1C(=O)COc1ccc(Br)cc1C (centres undefined): Not met
Cc1ccc(-c2ccc(=O)n(CC(=O)NCCCN3CCCCC3)n2)cc1: Met
COc1ccc2c3c(c(=O)oc2c1OCC(=O)C(C)(C)C)CCCC3: Not met

Q) Would you say CCOc1cccc(NC(=O)CC#N)c1 shows inhibition at minimum 5%?
A) Met

Q) Would you say CCOc1ccc(NC(=O)Nc2ccc(N(C)C(C)=O)cc2)cc1 shows inhibition at minimum 5%?
A) Not met

Q) Would you say Cc1cccc(C)c1NC(=O)CCCSc1nnc(-c2ccco2)n1-c1ccccc1 shows inhibition at minimum 5%?
A) Not met

Q) Would you say Cc1cc(OCCN2CCCC2)ccc1C(C)C shows inhibition at minimum 5%?
A) Met

Q) Would you say CC(=O)NC(C(=O)NCC(N)=O)C(C)C (centres undefined) (Ac-[ξV]-Gly-NH2) shows inhibition at minimum 5%?
A) Not met

Q) Would you say CCOC(=O)c1c(C(C#N)C#N)cc(C)nc1C shows inhibition at minimum 5%?
A) Met

Q) Would you say O=C1CCC(=O)N1CCOP1(=O)COc2ccccc2OC1 shows inhibition at minimum 5%?
A) Not met

---

measurement-protocol: NADH-endpoint coupling enzyme inhibition profiling – biochemical, MLSMR library, artefact control, profiling panel (AID 774);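 note: the DPM-DC format reads NADH fluorescence rather than 340 nm absorbance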
measurement-setup: coupled PK/LDH NADH assays, four targets; at 10 µM; hits give high values
Out of some 65,000 compounds screened, about 15 (0.02%) were called active. These entries were drawn from the full list.
inhibition by entry:
The reply should be a number in %, with the unit left off.

Illustrative cases are given below, each with its answer.
CC(c1ccco1)N(C(=O)c1ccc(S(=O)(=O)N2CCCCC2)cc1)c1ccccn1 (stereo unspecified): 1
O=C(CCn1c(=O)oc2ccccc21)Nc1ccon1: 5
CCSC1(SCC)N=C(N)C2(C#N)C(c3ccccc3)NC(C)=CC12C#N (stereo unspecified): 1
O=[n+]1c2c(n([O-])c3cc(Br)ccc31)CCC2: 5
COc1ccc(S(=O)(=O)N2CCC(C(=O)N3CCc4ccccc4C3)CC2)cc1OC: 2

Please look at the following molecule next.
Q) Report inhibition for O=C(NC1CCN(Cc2ccccc2)CC1)c1ccccc1F please.
A) 1

---

inhibition by entry:
measurement-protocol: NADH-endpoint coupling enzyme inhibition profiling – biochemical, MLSMR library, artefact control, profiling panel (AID 774);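 note: the DPM-DC format reads NADH fluorescence rather than 340 nm absorbance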
measurement-setup: coupled PK/LDH NADH assays, four targets; at 10 µM; hits give high values
About 15 (0.02%) of roughly 65,000 compounds were called active. Only a sample is shown.
The reply should be a number in %, with the unit left off.

CCOc1ccc(OCC)c(NC(=O)CN(C)S(=O)(=O)c2cccc3nsnc23)c1: 4
COC(=O)c1ccc(C2CC(=O)Nc3cc(OC)c(OC)cc32)cc1 (stereo unspecified): 9
CCCOC(=O)Nc1sc2c(c1C(=O)OCC)CCC2: 5

Q) Report inhibition for COC(=O)c1cc(NC(=O)CN2CCC(C(N)=O)(N3CCCCC3)CC2)cc(C(=O)OC)c1 please.
A) 4

Q) Report inhibition for COc1ccccc1-n1nnnc1S(=O)(=O)Cc1ccc(Cl)cc1 please.
A) 5

Q) Report inhibition for Cn1c(NC(=O)c2ccc3c(c2)OCO3)cc(=O)n(C)c1=O please.
A) 7

Q) Report inhibition for OCCCN1c2ccccc2Nc2nnc(-c3ccccc3)cc21 please.
A) 2

Q) Report inhibition for C=CCNC(=O)C1CC=CCC1C(=O)O (stereo unspecified) please.
A) 4

Q) Report inhibition for C=C1c2cc(CC)ccc2NC(=O)N1c1ccc(C)cc1 please.
A) 4

Q) Report inhibition for COCCCNC(=O)c1c(F)c(F)c(F)c(F)c1F please.
A) 5

Q) Report inhibition for Cc1noc(C)c1S(=O)(=O)N(CC(=O)Nc1ccc2c(c1)OCCO2)c1ccc(C(C)C)cc1 please.
A) 8

---

measurement-protocol: NADH-endpoint coupling enzyme inhibition profiling – biochemical, MLSMR library, artefact control, profiling panel (AID 774);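 note: the DPM-DC format reads NADH fluorescence rather than 340 nm absorbance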
measurement-setup: coupled PK/LDH NADH assays, four targets; at 10 µM; hits give high values
In all, about 65,000 compounds went through this assay and about 15 (0.02%) were called active. The list is a sample of the results.
parameter: inhibition (%)
The reply should be a number in %, with the unit left off.

Illustrative cases are given below, each with its answer.
CC(C)C1Cc2c(sc3c2c(=O)n(-c2ccccc2)c2nncn32)CO1 (stereo unspecified): 3
CS(=O)(=O)N(Cc1nc2sc3c(c2c(=O)[nH]1)CCCC3)C1CCCCC1: 3
CCOC(=O)c1ccc(N2C(=O)CC(N3CC(C)OC(C)C3)C2=O)cc1 (stereo unspecified): 3
COC(=O)Cc1csc(Nc2c(C)n(C)n(-c3ccccc3)c2=O)n1: 8
OCCCNC(c1ccccc1)c1ccc(O)cc1 (stereo unspecified): 6

Q) Report inhibition for COc1ccc(C2CC(c3ccc(C)cc3)Nc3nc(N)nn32)cc1 (stereo unspecified) please.
A) 1

Q) Report inhibition for CC(NC(=O)Nc1ccccc1)c1ccccc1 (stereo unspecified) please.
A) 10

Q) Report inhibition for CC(=O)c1c(C)n([O-])c2ccccc2[n+]1=O please.
A) 5

Q) Report inhibition for CCOC(=O)C1CCN(C(=O)Cn2cc(C#N)c3ccccc32)CC1 please.
A) 5

Q) Report inhibition for CC1=CC(C)(C)N(C(=O)CSc2nccn2C)c2cc(C)ccc21 please.
A) 0

Q) Report inhibition for CC(Oc1ccc(Cl)cc1)C(=O)Nc1ncccn1 (stereo unspecified) please.
A) 5
